- System: small-flower umbrella sedge (Cyperus difformis)
- ASSAY_EXPLANATION: Test D flooded paddy test plant response
- Type: in vivo
- ASSAY_CONTEXT: Flood (flooded paddy test), 250 g ai/ha; visual rating on scale 0 to 100 (0 no effect, 100 complete control), 13 to 15 days
Listing of entries alongside the reported Plant response rating, Sedge, Umbrella.
RECORDED_METRIC: Plant response rating, Sedge, Umbrella

{"COMPOUND_SMILES": "Fc1cccc(Oc2ncc(Cl)cn2)c1-c1cc(C(F)F)no1", "TARGET_UNDER_TEST": "small-flower umbrella sedge (Cyperus difformis)", "RECORDED_METRIC": "Plant response rating, Sedge, Umbrella", "OBS_VALUE": 95}
{"COMPOUND_SMILES": "FCc1cc(-c2ccccc2Oc2ncc(Cl)cn2)no1", "TARGET_UNDER_TEST": "small-flower umbrella sedge (Cyperus difformis)", "RECORDED_METRIC": "Plant response rating, Sedge, Umbrella", "OBS_VALUE": 90}
{"COMPOUND_SMILES": "Fc1cccc(Oc2ncc(Br)cn2)c1-c1cc(C(F)F)no1", "TARGET_UNDER_TEST": "small-flower umbrella sedge (Cyperus difformis)", "RECORDED_METRIC": "Plant response rating, Sedge, Umbrella", "OBS_VALUE": 90}
{"COMPOUND_SMILES": "CC(F)(F)c1cc(-c2ccccc2Oc2ncc(Cl)cn2)on1", "TARGET_UNDER_TEST": "small-flower umbrella sedge (Cyperus difformis)", "RECORDED_METRIC": "Plant response rating, Sedge, Umbrella", "OBS_VALUE": 75}

====

- Tested on: pigweed (Amaranthus retroflexus)
- ASSAY_EXPLANATION: Test B pre-/postemergence plant response
- Format: in vivo
- ASSAY_CONTEXT: 125 g ai/ha, postemergence; 0 to 100 scale, 0 no effect, 100 complete control

{"COMPOUND_SMILES": "Cn1nnc(-c2ccccc2Oc2ncc(Cl)cn2)n1", "TARGET_UNDER_TEST": "pigweed (Amaranthus retroflexus)", "Plant response rating, Pigweed": 70}
{"COMPOUND_SMILES": "FC(F)(F)c1ccnc(-c2c(Cl)cccc2Oc2ncc(Cl)cn2)c1", "TARGET_UNDER_TEST": "pigweed (Amaranthus retroflexus)", "Plant response rating, Pigweed": 90}
{"COMPOUND_SMILES": "Cn1nnnc1-c1ccccc1Oc1ncc(Cl)cn1", "TARGET_UNDER_TEST": "pigweed (Amaranthus retroflexus)", "Plant response rating, Pigweed": 50}
{"COMPOUND_SMILES": "CCOC(=O)c1cc(-c2ccccc2Oc2ncc(Cl)cn2)on1", "TARGET_UNDER_TEST": "pigweed (Amaranthus retroflexus)", "Plant response rating, Pigweed": 0}
{"COMPOUND_SMILES": "COc1cccc(Oc2ncc(Cl)cn2)c1-c1cc(C(F)(F)F)no1", "TARGET_UNDER_TEST": "pigweed (Amaranthus retroflexus)", "Plant response rating, Pigweed": 90}
{"COMPOUND_SMILES": "Clc1cnc(Oc2ccccc2-c2cocn2)nc1", "TARGET_UNDER_TEST": "pigweed (Amaranthus retroflexus)", "Plant response rating, Pigweed": 10}
{"COMPOUND_SMILES": "N#Cc1cccc(-n2cc(Br)cn2)c1Oc1ncc(Cl)cn1", "TARGET_UNDER_TEST": "pigweed (Amaranthus retroflexus)", "Plant response rating, Pigweed": 90}
{"COMPOUND_SMILES": "FC(F)(F)c1cc(-c2c(Cl)cccc2Oc2ncc(Cl)cn2)no1", "TARGET_UNDER_TEST": "pigweed (Amaranthus retroflexus)", "Plant response rating, Pigweed": 100}
{"COMPOUND_SMILES": "COc1cccc(Oc2ncc(Cl)cn2)c1-c1cc(C)no1", "TARGET_UNDER_TEST": "pigweed (Amaranthus retroflexus)", "Plant response rating, Pigweed": 30}
{"COMPOUND_SMILES": "N#Cc1cccc(Oc2ncc(Cl)cn2)c1-c1cc(C(F)(F)F)on1", "TARGET_UNDER_TEST": "pigweed (Amaranthus retroflexus)", "Plant response rating, Pigweed": 100}
{"COMPOUND_SMILES": "N#Cc1cccc(Oc2ncc(Cl)cn2)c1-c1ccsc1", "TARGET_UNDER_TEST": "pigweed (Amaranthus retroflexus)", "Plant response rating, Pigweed": 30}
{"COMPOUND_SMILES": "Clc1cnc(Oc2ccccc2-c2ccno2)nc1", "TARGET_UNDER_TEST": "pigweed (Amaranthus retroflexus)", "Plant response rating, Pigweed": 0}
{"COMPOUND_SMILES": "Clc1cnc(Oc2ccccc2-c2ccon2)nc1", "TARGET_UNDER_TEST": "pigweed (Amaranthus retroflexus)", "Plant response rating, Pigweed": 90}
{"COMPOUND_SMILES": "Cn1nnc(-c2ccccc2Oc2ncc(Br)cn2)n1", "TARGET_UNDER_TEST": "pigweed (Amaranthus retroflexus)", "Plant response rating, Pigweed": 70}
{"COMPOUND_SMILES": "FC(F)(F)COc1cc(-c2ccccc2Oc2ncc(Cl)cn2)on1", "TARGET_UNDER_TEST": "pigweed (Amaranthus retroflexus)", "Plant response rating, Pigweed": 100}
